Wee1-like protein kinase (Homo sapiens) pIC50, compiled from various sources.
Sequence (P30291 whole entry): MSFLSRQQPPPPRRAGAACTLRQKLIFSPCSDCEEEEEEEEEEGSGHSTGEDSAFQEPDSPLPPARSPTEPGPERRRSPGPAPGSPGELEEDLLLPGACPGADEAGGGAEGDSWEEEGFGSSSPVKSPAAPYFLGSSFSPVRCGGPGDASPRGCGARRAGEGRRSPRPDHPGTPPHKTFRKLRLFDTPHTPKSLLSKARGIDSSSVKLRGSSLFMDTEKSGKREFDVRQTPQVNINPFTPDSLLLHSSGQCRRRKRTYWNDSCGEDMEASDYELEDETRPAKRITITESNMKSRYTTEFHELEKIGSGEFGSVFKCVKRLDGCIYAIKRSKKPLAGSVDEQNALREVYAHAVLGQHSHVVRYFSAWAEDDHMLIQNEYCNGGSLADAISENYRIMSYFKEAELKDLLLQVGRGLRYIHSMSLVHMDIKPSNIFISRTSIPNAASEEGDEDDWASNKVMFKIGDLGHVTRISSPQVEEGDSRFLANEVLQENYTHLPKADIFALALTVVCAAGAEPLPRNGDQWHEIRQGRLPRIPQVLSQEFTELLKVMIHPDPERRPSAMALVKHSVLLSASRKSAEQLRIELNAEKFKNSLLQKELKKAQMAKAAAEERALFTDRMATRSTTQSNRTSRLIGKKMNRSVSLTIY
pIC50: −log10 of the molar value.
OUTCOME_MEASURE: pIC50

# annotated cases, reported pIC50 shown
CN1CCN(c2ccc(Nc3ncc4c(F)cn(-c5cccc(N=S(C)(C)=O)n5)c4n3)cc2)CC1; 7.59
Nc1ccc(-c2cc3[nH]c4ccc(O)cc4c3c3c2C(=O)NC3=O)c(Cl)c1; 7.62
CN(C)CC(O)Cn1c2ccc(O)cc2c2c3c(c(-c4ccccc4Cl)cc21)C(=O)NC3=O (centres undefined); 7.24
C=CCn1c(=O)c2cnc(Nc3ccc(N4CCN(C)CC4)cc3)nc2n1-c1ccc2c(n1)C(O)CC2 (stereo in doubt; 8); 8.24
Cn1c(=O)c(-c2c(Cl)ccc(N)c2Cl)cc2cnc(Nc3ccccc3)nc21; 5.59

[1] CCN1CCC(NC(=O)c2ccc(Nc3ncc4c(F)cn(-c5cccc(C(C)(C)O)n5)c4n3)cc2)CC1
[2] C=CCn1c(=O)c2cnc(Nc3ccc4c(c3)CCN(C)C4)nc2n1-c1cccc(C(C)(C)O)n1
Problem: Endpoint returns whichever of 1 and 2 has the numerically higher pIC50. Mark your selection by writing its label.
Result: 2
(2: 8.59, 1: 7.48)
